TEST PROTOCOL: antimalarial activity against Dd2 strain (AID 2302);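 also: 0% = DMSO untreated growth and 100% = chloroquine plus artemisinin killed control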
TEST CONTEXT: P. falciparum Dd2 in RBCs, LDH growth readout, 72 h; at 2 µM
Active and inactive are the calls of the source.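 The calls were made as follows: active = growth inhibition above 50% at the single 2 µM test dose, taken to imply half-maximal potency below 2 µM; inactive = the rest.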
Output constraint: value belongs to TRUE for active, FALSE for inactive

C=CCOC(=O)O[C@@H]1[C@@H](OC(=O)OCC=C)[C@@H](OC)O[C@H](COC(c2ccccc2)(c2ccccc2)c2ccccc2)[C@H]1OC(=O)OCC=C: TRUE

Task item: Returns: the outcome recorded for `Oc1ccc(-c2ccccc2)cc1CN1CCCCCC1` in this assay.
Reply: TRUE

Task item: Returns: the outcome recorded for CN1CCC(Oc2ccc(CN3CC[C@H](NC(=O)c4ccc(Cl)c(Cl)c4)C3)c3ccccc23)C1 (some centres undefined) in this assay.
Reply: TRUE

Task item: Returns: the outcome recorded for `COc1ccc(CCn2c(=N)c(C(=O)NCc3ccccc3)cc3c(=O)n4cccc(C)c4nc32)cc1` in this assay.
Reply: FALSE

---

TEST PROTOCOL: inhibition of 3D7 malaria parasite growth – strain 3D7 (AID 2306);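 also: 0% = DMSO wells and 100% = chloroquine plus artemisinin control wells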
TEST CONTEXT: P. falciparum 3D7 erythrocytic growth, LDH absorbance, 72 h; at 2 µM; active compounds read high
growth inhibition values, listed per item
// note: answer is a bare numeric in %

Worked set:
COc1cc(OC)cc(-c2nn(-c3ccc([N+](=O)[O-])cc3C#N)c(=S)n2CC2CCCO2)c1 (stereo not given): 98
Cn1cncc1CNCc1ccc(-c2cccc(-c3nc4ccccc4[nH]3)c2)cc1: 101
OCCCCCCNc1ccnc2[nH]c3ccc(I)cc3c12: 100
N#Cc1ccc(NC(=NC2CCN(Cc3ccccc3)CC2)Nc2ccccc2Cl)c(O)c1: 101

Task item: Query growth inhibition for `Cc1c(Cl)cccc1S(=O)(=O)Nc1ccc(CCN2CCC(N)CC2)cc1`
Reply: 90

---

TEST PROTOCOL: inhibition of 3D7 malaria parasite growth – strain 3D7 (AID 2306);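 also: 0% = DMSO wells and 100% = chloroquine plus artemisinin control wells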
TEST CONTEXT: P. falciparum 3D7 erythrocytic growth, LDH absorbance, 72 h; at 2 µM; active compounds read high
growth inhibition values, listed per item
// note: answer is a bare numeric in %

Worked set:
O=C(/C=C/c1ccc(Cl)c(Cl)c1)NCCCCCN1CCC(NC(=S)Nc2ccc(F)cc2F)CC1: 100
Cc1nnc(N2C(=N)SC(=Cc3ccc(-c4ccc(OC(F)(F)F)cc4)o3)C2=O)s1: 85
COc1ccc2c(=O)ccn(CCN3CCC(NCc4ccc5c(n4)NC(=O)CS5)CC3)c2c1: 98
Nc1ccc(-c2nc3ccc(-c4ccc5nc(-c6ccc(N)cc6)[nH]c5c4)cc3[nH]2)cc1: 101
CCOC(=O)c1ccc(-c2c(C(F)(F)F)noc2-c2cc(CC)c(OC)cc2O)o1: 100
O=C(Nc1cccc(-c2cccc(-c3nc4ccccc4[nH]3)c2)c1)Nc1ccc2c(c1)OCO2: 101

Task item: Query growth inhibition for O=C(/C=C/c1ccc(Cl)c(Cl)c1)NC1CCC(CN2CCC(Cc3cc4ccccc4[nH]3)CC2)CC1 (centres undefined)
Reply: 100

Task item: Query growth inhibition for `Cc1cc(CN2CC[C@H](NC(=O)c3ccc(Cl)c(Cl)c3)C2)ccc1OCCN1CCCC1`
Reply: 101

---

inhibition values, listed per item
SYSTEM TESTED: L-lactate dehydrogenase (Plasmodium falciparum (isolate CDC / Honduras)) (UniProt Q27743)
Sequence (Q27743 whole entry, looked up): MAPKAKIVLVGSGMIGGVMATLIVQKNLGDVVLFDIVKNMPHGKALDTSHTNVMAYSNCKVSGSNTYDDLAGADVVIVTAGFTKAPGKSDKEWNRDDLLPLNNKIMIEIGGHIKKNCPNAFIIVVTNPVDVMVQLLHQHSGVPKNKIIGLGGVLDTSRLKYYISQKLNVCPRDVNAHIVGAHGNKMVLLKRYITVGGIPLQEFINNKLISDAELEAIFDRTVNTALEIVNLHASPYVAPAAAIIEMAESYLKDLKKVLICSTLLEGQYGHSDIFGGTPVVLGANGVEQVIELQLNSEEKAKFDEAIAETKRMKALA
TEST PROTOCOL: PfLDH activity inhibition – cell lysate, 3D7 strain, counter-screen for P. falciparum growth inhibition project (AID 2304);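 also: 0% = vehicle and 100% = reference inhibitor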
TEST CONTEXT: P. falciparum 3D7 crude extract, LDH APAD/NBT absorbance; at 2 µM; active compounds read high
// note: answer is a bare numeric in %

O=C(NC(c1ccccc1)c1ccccc1)C(c1cc2ccccc2o1)N1CCN(C(c2ccccc2)c2ccccc2)CC1 (stereo not drawn): -1
O=C1NC(=S)NC1=CC=Cc1ccc([N+](=O)[O-])o1: 2
O=C(Nc1nc2ccc(Cl)cc2s1)c1csnn1: 3
CC(C)(C)c1ccc2nc(-c3ccc(C(=O)NC4CCN(Cc5ccccc5)CC4)s3)[nH]c2c1: 0
O=C(NCCc1cccc(F)c1)c1cc(Br)cc(N2CCN(c3ccncc3)CC2)c1: 0

Task item: Query inhibition for `COc1cc(C(=O)Nc2cccc(-c3cn4ccc(C)cc4n3)c2)cc(OC)c1OC`
Reply: 1

Task item: Query inhibition for COc1ccc2nccc([C@@H](O)CN3CCC(NC(=O)C(c4cc5ccccc5o4)N4CCN(C(c5ccccc5)c5ccccc5)CC4)CC3)c2c1 (stereo partly drawn)
Reply: -4

Task item: Query inhibition for `C[C@H](O)[C@@](C)(CO)NCc1ccc2c3c(cccc13)-c1ccccc1-2`
Reply: -2

Task item: Query inhibition for `O=C(/C=C/c1ccc(Cl)c(Cl)c1)NCCCCCN1CCC(NC(=O)NC2CCCC2)CC1`
Reply: -1

Task item: Query inhibition for `CCN1CCN(Cc2c(O)ccc3c(=O)c(Oc4cc(C)cc(C)c4)c(C(F)(F)F)oc23)CC1`
Reply: 3

Task item: Query inhibition for `COc1ccc(CN2CCCN(Cc3cccc(C(=O)Nc4ccc(C)c(F)c4)c3)CC2)cc1`
Reply: -3

Task item: Query inhibition for `O=C(NCCCN1CCC(Cc2ccccc2)CC1)c1cc2c(Cl)nc3ccccc3c2s1`
Reply: -3

Value source: PubChem BioAssay
